These measurements were taken from patent US20090035322A1.

- system: T1, human CD20 (human, UniProt P11836 1-297)
- T1 sequence: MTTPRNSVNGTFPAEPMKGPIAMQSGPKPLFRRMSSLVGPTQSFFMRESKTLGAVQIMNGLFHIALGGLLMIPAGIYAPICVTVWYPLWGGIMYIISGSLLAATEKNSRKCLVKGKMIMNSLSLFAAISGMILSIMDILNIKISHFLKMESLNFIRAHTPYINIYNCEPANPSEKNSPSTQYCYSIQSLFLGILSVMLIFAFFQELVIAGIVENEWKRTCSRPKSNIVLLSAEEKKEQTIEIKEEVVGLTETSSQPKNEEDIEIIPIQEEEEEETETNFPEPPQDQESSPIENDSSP
- measurement notes: cell-based or functional assay
Recorded CDC, RL EC50 by entry

10E3-17 (antibody, V domains shown, Fully human IgG, constant region not specified; also called 10E3-17N) VH: EVQLVESGGGLVQPGRSLRLSCAASGFTFRDYAMHWVRQVPGKGLEWVSGISWNRGTIGYADSVKGRFTISRDNAKNSLFLQMNSLRADDTALYYCAKDHYYGSGSPYGMDVWGQGTTVTVSS VL: EIVLTQSPATLALSPGERATLSCRASQSVSKYLAWYQQKPGQAPRLLIYDASKRVTGIPGRLSGSGSGTDFTLTISSLEPEDFALYYCQQSSNWPITFGQGTRVEIK    7.8 nM
9H4-12 (antibody, V domains shown, Fully human IgG, constant region not specified; also called 9H4-12N) VH: EVQLVESGGGLVQPGRSLRLSCAASGFTFDDYAMHWVRQVPGKGLEWVSGISWNSGSIGYADSVKGRFTISRDNAKNSLYLQMNSLRAEDTALYYCAKDMGYGNYYHYGMDVWGQGTTVTVSS VL: DIVLTQSPATLSLSPGERATLSCRASQSVSSYLAWYQQKPGQAPRLLICDASHRATRIPARFSGSGSGTDFTLTISSLEPEDFAVYYCQQRSNWPITFGQGTRLEIK    29.6 nM
rituximab (RITUXAN, IDEC Pharmaceuticals Corp.) (antibody, V domains shown) VH: QVQLQQPGAELVKPGASVKMSCKASGYTFTSYNMHWVKQTPGRGLEWIGAIYPGNGDTSYNQKFKGKATLTADKSSSTAYMQLSSLTSEDSAVYYCARSTYYGGDWYFNVWGAGTTVTVSA VL: QIVLSQSPAILSASPGEKVTMTCRASSSVSYIHWFQQKPGSSPKPWIYATSNLASGVPVRFSGSGSGTSYSLTISRVEAEDAATYYCQQWTSNPPTFGGGTKLEIK    > 50 nM
10F2-13 (antibody, V domains shown, Fully human IgG, constant region not specified; also called 10F2-13N; ab 10F2-13) VH: EEQLVESGGDLVQPGRSLRLSCAASGFTFHDYTMHWVRQAPGKGLEWVSGISWNSGSLGYADSVKGRFTISRDNAKKSLYLQMNSLRAEDTALYYCAKDPSYGSGSYHSYYGMDVWGQGTTVTVSS VL: EIVLTQSPATLSLSPGERATLSCWASQSISRYLVWYQQKCGQAPRLLIYEASKRATGIPVRFSGSGSGTDFTLTISSLESEDFAVYYCQQRFNWPLTFGGGTKVEIK    0.36 nM
8G6-5 (antibody, V domains shown, Fully human IgG, constant region not specified; also called 8G6-5N) VH: EVQLAESGGDLVQSGRSLRLSCAASGITFHDYAMHWVRQPPGKGLEWVSGISWNSDYIGYADSVKGRFTISRDNAKKSLYLQMNSLRPDDTALYYCVKDFHYGSGSNYGMDVWGQGTTVTVSP VL: EIVMTQSPATLSMSPGERATLSCRASQSVSRNLAWYQQKVGQAPRLLISGASTRATGIPARFSGSGSGTEFTLTINSLQSEDFAVYYCQQSNDWPLTFGQGTRLEIK    1.06 nM

Prompt: Endpoint output: CDC, RL EC50 of 9C11-14 (antibody, V domains shown, Fully human IgG, constant region not specified; also called 9C11-14N) VH: QVQLVESGGDSVKPGGSLRLSCAASGFTFSDSYMTWIRQAPGKGLEWVSFISSSGSTIYYADSVKGRFTISRDNVKKSLYLQMNRLRAEDTAVYYCAREEPGNYVYYGMDVWGQGTTVTVSS VL: EIVVTQSPATLSLSPGERATLSCRTSQTTTSYLAWYRQKPGQAPRLLIYDASNRAAGIPARFSGSGSGTDFTLTINSLEPEDFAVYYCQLRTNWITFGQGTRLEIK . Value?
Response: 12 nM
